Examples of compounds with documented inhibition at 10 µM follow.
- Species on record: Rattus norvegicus
- TEST SUMMARY: Percentage of inhibition of noradrenaline-induced contractions in rat portal vein at 10 uM (in vitro)
- Type: functional
QUANTITY MEASURED: inhibition at 10 µM

[[record]]
compound = "CC1(C)C(=O)c2ccc(Br)cc2[C@@H](Oc2ccccn2)[C@@H]1O"
value = "32%"

[[record]]
compound = "CC(=O)O[C@H]1[C@H](n2ccccc2=O)c2cc(Br)ccc2C(=O)C1(C)C"
value = "38%"

[[record]]
compound = "CC1(C)C=C(N2CCCC2=O)c2ccc(C#N)cc2C1=O"
value = "0%"

[[record]]
compound = "CC1(C)C(=O)c2ccc(Cl)cc2[C@@H](n2ccccc2=O)[C@@H]1O"
value = "0%"

[[record]]
compound = "CC1(C)C=C(n2ccccc2=O)c2ccc(C#N)cc2C1=O"
value = "0%"

[[record]]
compound = "CC(=O)OC1c2ccc(Br)cc2C(n2ccccc2=O)=CC1(C)C (centres undefined)"
value = "38%"

[[record]]
compound = "CC1(C)C=C(n2ccccc2=O)c2cc(Br)ccc2C1(C)O (centres undefined)"
value = "23%"

[[record]]
compound = "CC1(C)C=C(N2CCCC2=O)c2ccccc2C1=O"
value = "0%"

[[record]]
compound = "CC1(C)C(=O)c2ccc(C#N)cc2[C@@H](NC(=O)c2ccoc2)[C@@H]1O"
value = "24%"

[[record]]
compound = "CC1(C)C(=O)c2ccc(C#N)cc2[C@@H](NC(=O)c2ccncc2)[C@@H]1O"
value = "39%"

[[record]]
compound = "CC1(C)C(=O)c2ccc(Br)cc2[C@@H](N2CCS/C2=N\\C#N)[C@@H]1O"
value = "26%"

[[record]]
compound = "COc1ccc2c(c1)C(N1CCCC1=O)=CC(C)(C)C2=O"
value = "20%"

[[record]]
compound = "CC1(C)C(=O)c2ccc(F)cc2[C@@H](n2ccccc2=O)[C@@H]1O"
value = "0%"

[[record]]
compound = "COc1ccc2c(c1)[C@@H](n1ccccc1=O)[C@H](O)C(C)(C)C2=O"
value = "0%"

[[record]]
compound = "CC1(C)C(=O)c2ccc(C#N)cc2[C@@H](NC(=O)c2ccc(Cl)c(Cl)c2)[C@@H]1O"
value = "67%"

[[record]]
compound = "CC1(C)C(=O)c2ccc(C#N)cc2[C@@H](NC(=O)c2ccc(Cl)cc2Cl)[C@@H]1O"
value = "35%"

[[record]]
compound = "CC1(C)C(=O)c2ccc(Br)cc2C(N2CCCC2=O)[C@@H]1O (some centres undefined)"
value = "40%"

[[record]]
compound = "CC1(C)C(=O)c2ccc(Br)cc2[C@@H](N2CCN=C2NC#N)[C@@H]1O"
value = "8%"

[[record]]
compound = "Cn1nc(OC2=CC(C)(C)C(=O)c3ccc(C#N)cc32)ccc1=O"
value = "0%"

[[record]]
compound = "CC1(C)C=C(N2CCCC2=O)c2ccc(Br)cc2C1=O"
value = "11%"

[[record]]
compound = "COC1c2ccc(Br)cc2C(n2ccccc2=O)=CC1(C)C (centres undefined)"
value = "22%"

[[record]]
compound = "CC1(C)C=C(n2ccccc2=O)c2cc(C#N)ccc2/C1=N\\O"
value = "27%"

[[record]]
compound = "CC1(C)C(=O)c2ccc(C#N)cc2[C@@H](OC2=CC(=O)CC2)[C@@H]1O"
value = "9%"

[[record]]
compound = "CC1(C)C=C(n2ccccc2=O)c2cc(C(N)=O)ccc2C1=O"
value = "21%"

[[record]]
compound = "C/C(=N/[C@@H]1c2cc(C#N)ccc2C(=O)C(C)(C)[C@H]1O)NC#N"
value = "19%"

[[record]]
compound = "CC1(C)C=C(n2ccccc2=O)c2cc(C(=O)O)ccc2C1=O"
value = "0%"

[[record]]
compound = "CC1(C)C=C(N2CCCC2=O)c2cc(Cl)ccc2C1=O"
value = "0%"

[[record]]
compound = "CC1(C)C(=O)c2ccccc2[C@@H](n2ccccc2=O)[C@@H]1O"
value = "0%"

[[record]]
compound = "CC1(C)C(=O)c2ccc(C#N)cc2C(N2CCCC2=O)[C@@H]1O (some centres undefined)"
value = "12%"


----------
Examples of compounds with documented pIC50 follow.
- Species on record: Cavia porcellus
- TEST SUMMARY: In vitro inhibition of spontaneous tone of guinea pig tracheal spirals
- Type: functional
- TEST CONDITIONS: Trachea
pIC50: −log10 of the molar value.
QUANTITY MEASURED: pIC50

[[record]]
compound = "CC1(C)C=C(N2Cc3ccccc3C2=O)c2cc(C#N)ccc2C1=O"
quantity_measured = "pIC50"
operator = "="
value = 5.89

[[record]]
compound = "CC1(C)C=C(n2ccccc2=O)c2cc(C#N)ccc2/C1=N\\O"
quantity_measured = "pIC50"
operator = "="
value = 4.90

[[record]]
compound = "CC1(C)C=C(n2ccccc2=O)c2cc(Br)ccc2C1(C)O (stereo unspecified)"
quantity_measured = "pIC50"
operator = "="
value = 5.38

[[record]]
compound = "CC1(C)C(=O)c2ccc(C#N)cc2[C@@H](NC(=O)c2ccc(Cl)c(Cl)c2)[C@@H]1O"
quantity_measured = "pIC50"
operator = "<"
value = 5.00

[[record]]
compound = "CC1(C)C(=O)c2ccc(Br)cc2[C@@H](Oc2ccc(=O)[nH]n2)[C@@H]1O"
quantity_measured = "pIC50"
operator = "="
value = 5.36

[[record]]
compound = "CC1(C)C=C(n2ccccc2=O)c2cc(Br)ccc2C1=O"
quantity_measured = "pIC50"
operator = "="
value = 6.70

[[record]]
compound = "CO/N=C1\\c2ccc(C#N)cc2C(n2ccccc2=O)=CC1(C)C"
quantity_measured = "pIC50"
operator = "<"
value = 5.00

[[record]]
compound = "CC1(C)C(=O)c2ccc(C#N)cc2[C@@H](NC(=O)c2ccncc2)[C@@H]1O"
quantity_measured = "pIC50"
operator = "<"
value = 5.00

[[record]]
compound = "CCC1(CC)C=C(n2ccccc2=O)c2cc(C#N)ccc2C1=O"
quantity_measured = "pIC50"
operator = "="
value = 5.59

[[record]]
compound = "C/C(=N/[C@@H]1c2cc(C#N)ccc2C(=O)C(C)(C)[C@H]1O)NC#N"
quantity_measured = "pIC50"
operator = "="
value = 5.46

[[record]]
compound = "CNc1ccc2c(c1)C(n1ccccc1=O)=CC(C)(C)C2=O"
quantity_measured = "pIC50"
operator = "="
value = 5.04

[[record]]
compound = "CC1(C)C=C(n2ccccc2=O)c2cc(C(=O)O)ccc2C1=O"
quantity_measured = "pIC50"
operator = "<"
value = 5.00

[[record]]
compound = "CC(=O)N(C)c1ccc2c(c1)C(N1CCCC1=O)=CC(C)(C)C2=O"
quantity_measured = "pIC50"
operator = "="
value = 5.60

[[record]]
compound = "CC1(C)C=C(N2CCCC2=O)c2ccc(Br)cc2C1=O"
quantity_measured = "pIC50"
operator = "<"
value = 5.00

[[record]]
compound = "CC1(C)C=C(N2CCCCC2=O)c2cc(Br)ccc2C1=O"
quantity_measured = "pIC50"
operator = "="
value = 5.46

[[record]]
compound = "CC1(C)C=C(n2ccccc2=O)c2ccc(C#N)cc2C1=O"
quantity_measured = "pIC50"
operator = "<"
value = 5.00


----------
- System: Rattus norvegicus
- TEST SUMMARY: Effective dose (after peroral administration) required to decrease systolic blood pressure by 30 mmHg in spontaneously hypertensive rats (SHR)
- Type: functional
- TEST CONDITIONS: Artery, po
Class (required): determined from ED30; valid ranges are b0: < 5 µg/kg; b1: ≥ 5 µg/kg and < 10 µg/kg; b2: ≥ 10 µg/kg

[[record]]
molecule = "CC1(C)C=C(n2ccccc2=O)c2cc(C#N)ccc2C1=O"
label_value = "b0"

[[record]]
molecule = "CC1(C)C=C(n2ccccc2=O)c2cc(Br)ccc2C1=O"
label_value = "b1"

[[record]]
molecule = "CC1(C)C(=O)c2ccc(C#N)cc2[C@@H](Oc2ccc(=O)[nH]n2)[C@@H]1O"
label_value = "b1"

[[record]]
molecule = "CC1(C)C=C(n2ccccc2=O)c2cc(C(F)(F)C(F)(F)F)ccc2C1=O"
label_value = "b0"

[[record]]
molecule = "CC1(C)Oc2ccc(C#N)cc2C(N2CCCC2=O)C1O (racemic)"
label_value = "b2"

[[record]]
molecule = "C#Cc1ccc2c(c1)C(n1ccccc1=O)=CC(C)(C)C2=O"
label_value = "b0"

[[record]]
molecule = "CC1(C)C=C(N2CCCC2=O)c2cc(C#N)ccc2C1=O"
label_value = "b2"

[[record]]
molecule = "Cn1nc(O[C@@H]2c3cc(C#N)ccc3C(=O)C(C)(C)[C@H]2O)ccc1=O"
label_value = "b2"

